targetOrSystem: HLA A3 (Homo sapiens, UniProt P04439)
Construct: EGFP; expressed in transfected cells; host or cells: T2 cells
Sequence (P04439 25-365): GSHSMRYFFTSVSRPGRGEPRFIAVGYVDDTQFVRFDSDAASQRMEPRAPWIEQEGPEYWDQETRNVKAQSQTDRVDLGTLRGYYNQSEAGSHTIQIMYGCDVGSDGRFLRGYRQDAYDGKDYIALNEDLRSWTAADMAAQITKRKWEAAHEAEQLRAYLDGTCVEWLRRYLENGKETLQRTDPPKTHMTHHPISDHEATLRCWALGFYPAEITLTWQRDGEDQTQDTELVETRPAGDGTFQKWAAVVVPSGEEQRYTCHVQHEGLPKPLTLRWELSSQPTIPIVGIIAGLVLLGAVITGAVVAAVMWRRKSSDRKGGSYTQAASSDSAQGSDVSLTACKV
Sequence (P61769 21-119, further chain): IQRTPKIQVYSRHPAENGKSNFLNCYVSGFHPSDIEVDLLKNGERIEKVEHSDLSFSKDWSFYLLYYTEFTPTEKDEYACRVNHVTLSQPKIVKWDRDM
experimentalProtocol: MHC stabilization assay on T2 cells
Type: cell-based
conditionNotes: HLA A3 on transfected T2 cells; relative increase vs no peptide at 26° C.
observedProperty: MSE (MHC stabilization efficiency)

sequenceString	observedProperty	result
IMREFNSYK (human cytomegalovirus gB CTL epitope peptide)	MSE (MHC stabilization efficiency)	+++ (+++ = 200-300%)
ALALFAAAR (human cytomegalovirus gH CTL epitope peptide)	MSE (MHC stabilization efficiency)	− (− = 0-50%)
RLNTYALVSK (human cytomegalovirus gH CTL epitope peptide)	MSE (MHC stabilization efficiency)	+++ (+++ = 200-300%)
ELLGRLNVY (human cytomegalovirus pp28 CTL epitope peptide)	MSE (MHC stabilization efficiency)	− (− = 0-50%)

Values were extracted from patent US7524503B2.
